- system_under_test: rat CB2 receptor (rCB2) (Rattus norvegicus)
- Sequence (Q9QZN9 1-360): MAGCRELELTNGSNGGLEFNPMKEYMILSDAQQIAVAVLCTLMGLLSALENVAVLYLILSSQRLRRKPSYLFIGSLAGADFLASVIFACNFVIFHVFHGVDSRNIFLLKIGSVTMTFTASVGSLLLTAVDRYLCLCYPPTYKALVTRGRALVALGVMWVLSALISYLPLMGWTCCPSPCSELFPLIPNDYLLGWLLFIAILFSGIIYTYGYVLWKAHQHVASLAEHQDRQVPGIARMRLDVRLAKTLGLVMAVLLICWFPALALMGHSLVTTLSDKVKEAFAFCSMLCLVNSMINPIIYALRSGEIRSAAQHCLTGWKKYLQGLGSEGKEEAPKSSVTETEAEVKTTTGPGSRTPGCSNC
- assay: cell-based
- Type: cell-based
- setup_conditions: agonist or inverse agonist at rCB2
measurement_type: +/− RCB2

A selection of reference data follows.
INSERT INTO measurements (compound, recorded_result) VALUES
  ('CCNC(=O)[C@@H](NC(=O)c1nc(-c2ccccc2)n2c1CN(C)CCC2)C(C)(C)C', '+'),
  ('CC12CCC(C1)C(C)(C)C2NC(=O)c1nc(-c2ccccc2)n2c1CN(CCO)CC2 (centres unmarked)', '−'),
  ('CNC(=O)[C@@H](NC(=O)c1nc(/C=C/CC2CCCC2)n2c1CN(C)CCC2)C(C)(C)C', '−'),
  ('CNC(=O)[C@@H](NC(=O)c1nc(C2CCNCC2)n2c1CN(C)CCC2)C(C)(C)C', '+'),
  ('C[C@@H](NC(=O)c1nc(-c2ccccc2)n2c1CN(C(=O)C(C)(C)C)CC2)C1CCCCC1', '−'),
  ('CN1CCn2c(-c3ccccc3)nc(C(=O)N[C@H](c3nc(C(C)(C)C)no3)C(C)(C)C)c2C1', '−'),
  ('CC(C)(CO)CNC(=O)c1nc(-c2ccccc2)n2c1CNCC2', '−');

Next, consider the following compound.
input: GET /values?readout=+/− RCB2&item= CNC(=O)[C@H](CC(C)C)NC(=O)c1nc(C2CCCCC2)n2c1CN(C)CCC2
output: +

* * *

- system_under_test: human CB1 receptor (hCB1) (Homo sapiens, UniProt P21554)
- Sequence (P21554 whole entry): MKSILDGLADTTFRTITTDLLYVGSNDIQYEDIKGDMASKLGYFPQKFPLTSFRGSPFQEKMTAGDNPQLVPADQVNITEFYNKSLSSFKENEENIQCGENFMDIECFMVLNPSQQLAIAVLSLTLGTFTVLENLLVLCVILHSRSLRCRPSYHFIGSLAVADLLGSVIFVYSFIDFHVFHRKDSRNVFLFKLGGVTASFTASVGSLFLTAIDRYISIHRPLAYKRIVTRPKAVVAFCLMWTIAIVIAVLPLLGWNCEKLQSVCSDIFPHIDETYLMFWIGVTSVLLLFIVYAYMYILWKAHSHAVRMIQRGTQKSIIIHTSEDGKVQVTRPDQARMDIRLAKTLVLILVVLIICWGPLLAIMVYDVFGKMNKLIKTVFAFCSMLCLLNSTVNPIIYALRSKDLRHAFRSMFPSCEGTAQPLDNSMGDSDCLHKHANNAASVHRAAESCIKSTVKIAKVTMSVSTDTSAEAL
- assay: cell-based
- Assay type: cell-based
- setup_conditions: agonist or inverse agonist at hCB1
measurement_type: +/− HCB1

Example entries and their recorded answers appear below.
INSERT INTO measurements (compound, recorded_result) VALUES
  ('CNC(=O)[C@H](CC(C)(C)C)NC(=O)c1nc(-c2ccc(C(F)(F)F)cc2F)n2c1CN(C)CCC2 [Compound 551]', '+'),
  ('CNC(=O)[C@@H](NC(=O)c1nc(C2=CCNCC2)n2c1CN(C)CC2)C(C)(C)C [Compound 274]', '+'),
  ('CNC(=O)[C@@H](NC(=O)c1nc(C2=CCOCC2)n2c1CN(C)CCC2)C(C)(C)C [Compound 594]', '+'),
  ('CC(C)C[C@H](NC(=O)c1nc(-c2ccc(Cl)cc2F)n2c1CN(C)CCC2)C(N)=O [Compound 564]', '+'),
  ('CN1CCCn2c(-c3ccc(F)cc3F)nc(C(=O)N[C@H](C(=O)N(C)C)C(C)(C)C)c2C1 [Compound 563]', '+'),
  ('CNC(=O)[C@@H](NC(=O)c1nc(C2=CCCC2)n2c1CN(C)CC2)C(C)(C)C [Compound 238]', '+');

Would you kindly look at the next entry?
input: Which +/− HCB1 reading was recorded for the compound CN1CCCn2c(-c3ccc(F)c(F)c3)nc(C(=O)N[C@H](C(=O)N(C)C)C(C)(C)C)c2C1 [Compound 561] ?
output: +
